target or test system: T1, recombinant human CD63 extracellular loop 2 expressed with a C-terminal human Fc tag (human)
T1 construct: also called hCD63 EC loop 2-hFc; human CD63 EC loop 2-Fc
T1 sequence (chain, as listed by the source limits assumed): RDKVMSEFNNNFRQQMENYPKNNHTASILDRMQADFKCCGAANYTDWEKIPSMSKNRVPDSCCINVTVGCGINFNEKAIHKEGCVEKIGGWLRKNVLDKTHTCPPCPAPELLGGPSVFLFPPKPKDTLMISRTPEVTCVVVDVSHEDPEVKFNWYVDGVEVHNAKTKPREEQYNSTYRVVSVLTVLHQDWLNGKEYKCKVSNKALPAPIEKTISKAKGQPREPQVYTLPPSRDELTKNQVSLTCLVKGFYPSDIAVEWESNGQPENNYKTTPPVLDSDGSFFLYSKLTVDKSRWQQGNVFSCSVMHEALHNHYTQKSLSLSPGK
measurement description: SPR Biacore, mAb captured, 25C
measure: t1/2 (h)
Reply with just the number (in h).

Answered cases to consult:
# binder, t1/2 / h
measured = [
    ("H1M12362N (antibody, V domains shown) VH: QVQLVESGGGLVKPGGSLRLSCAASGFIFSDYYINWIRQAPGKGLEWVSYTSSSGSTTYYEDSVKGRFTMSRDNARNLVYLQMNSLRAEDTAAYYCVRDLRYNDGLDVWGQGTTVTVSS VL: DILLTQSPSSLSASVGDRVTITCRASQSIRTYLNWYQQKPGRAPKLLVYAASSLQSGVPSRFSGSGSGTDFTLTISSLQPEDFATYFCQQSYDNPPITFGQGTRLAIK", 0.483),
    ("H2M12387N (antibody, V domains shown, also called H2aM12387N) VH: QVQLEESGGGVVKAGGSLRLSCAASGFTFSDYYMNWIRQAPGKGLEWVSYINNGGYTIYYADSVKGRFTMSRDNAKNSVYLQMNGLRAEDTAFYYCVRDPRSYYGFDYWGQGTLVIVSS VL: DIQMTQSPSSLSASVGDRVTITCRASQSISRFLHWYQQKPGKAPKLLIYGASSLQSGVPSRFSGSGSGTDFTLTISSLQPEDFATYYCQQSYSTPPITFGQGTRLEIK", 1.75),
    ("H1M12388N (antibody, V domains shown) VH: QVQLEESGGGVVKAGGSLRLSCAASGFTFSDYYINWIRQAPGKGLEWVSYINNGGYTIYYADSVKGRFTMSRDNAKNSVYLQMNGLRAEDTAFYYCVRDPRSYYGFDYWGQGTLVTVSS VL: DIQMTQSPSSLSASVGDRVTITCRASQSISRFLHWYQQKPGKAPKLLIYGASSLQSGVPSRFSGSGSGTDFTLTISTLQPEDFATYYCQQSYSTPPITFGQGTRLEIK", 1.12),
    ("H2M12395N (antibody, V domains shown, also called H2aM12395N) VH: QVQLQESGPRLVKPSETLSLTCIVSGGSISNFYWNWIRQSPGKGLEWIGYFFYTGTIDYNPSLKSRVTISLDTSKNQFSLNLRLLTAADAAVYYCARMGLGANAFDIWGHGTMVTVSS VL: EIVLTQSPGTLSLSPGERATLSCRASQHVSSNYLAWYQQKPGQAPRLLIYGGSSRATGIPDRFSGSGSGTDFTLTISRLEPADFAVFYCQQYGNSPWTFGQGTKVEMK", 0.383),
]

Shift focus to the following entry.
# return recorded t1/2 for input H1M12386N (antibody, V domains shown) VH: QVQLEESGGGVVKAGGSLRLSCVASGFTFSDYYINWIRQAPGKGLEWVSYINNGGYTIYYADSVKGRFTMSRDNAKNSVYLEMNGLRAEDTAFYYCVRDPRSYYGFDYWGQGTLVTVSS VL: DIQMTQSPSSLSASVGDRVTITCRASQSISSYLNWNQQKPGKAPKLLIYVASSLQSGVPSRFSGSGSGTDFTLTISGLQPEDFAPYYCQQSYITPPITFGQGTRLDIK
1.7
